# System: Human venous whole blood
# Assay Remarks: Human whole blood IFN-γ assay;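 note: blood from healthy donors exposed to compound for 1 h before stimulation with anti-CD3 and anti-CD28 at 1 µg/mL each, IFN-γ quantified in supernatant by AlphaLISA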
# Assay type: cell-based
# Settings: Homo sapiens, 24 h, human whole blood, anti-CD3 plus anti-CD28, 24 hours; 3 μM reference compound = 100% activation; read-out: INFg Whole Blood Normalized Agonist EC50
Examples of molecules with documented EC50 follow.
Please don't drop the unit; write it after the number.

Molecule	Quantity Name	Measured
Cc1ccc(C(c2ccc(F)cc2Cl)N2C[C@H](C)N(c3c(C#N)c(=O)n(C)c4ccc(C#N)nc34)C[C@H]2C)nc1 (stereo partly drawn) [Example 831]	EC50	2500 nM
Cc1cc(C(c2ccc(F)cc2)N2C[C@H](C)N(c3c(C#N)c(=O)n(C)c4ccc(C#N)nc34)C[C@H]2C)no1 (single isomer, unassigned) [Example 864]	EC50	6500 nM
C[C@@H]1CN(c2c(C#N)c(=O)n(C)c3ccc(C#N)nc23)CCN1Cc1ccccc1Cl [Example 997]	EC50	20000 nM
C[C@@H]1CN(c2c(C#N)c(=O)n(C)c3ccc(C#N)nc23)[C@@H](C)CN1C(c1ccccc1)c1ccc(F)cc1 (stereo partly drawn) [Example 807]	EC50	2500 nM
C[C@@H]1CN(c2c(C#N)c(=O)n(C)c3ccc(C#N)nc23)[C@@H](C)CN1C(c1ccc(Cl)cc1)c1ccc(Cl)cc1 [Example 805]	EC50	9800 nM

// EC50 (Human venous whole blood) for C[C@@H]1CN(c2c(C#N)c(=O)n(C)c3ccc(C#N)nc23)[C@@H](C)CN1C(c1ccc(Cl)cc1)c1ccc(F)cn1 (single isomer, unassigned) [Example 829] = 1200 nM

// EC50 (Human venous whole blood) for COC(=O)c1cccc(C(C)N2CCN(c3c(C#N)c(=O)n(C)c4ccc(C#N)nc34)C[C@H]2C)c1 (single isomer, unassigned) [Example 982] = 20000 nM

// EC50 (Human venous whole blood) for C[C@@H]1CN(c2cc(=O)n(C)c3ccc(C#N)nc23)[C@@H](C)CN1C(c1ccc(F)cc1)c1cnc(C2CC2)s1 (single isomer, unassigned) [Example 727] = 1300 nM

// EC50 (Human venous whole blood) for Cc1ccc(C(c2cccc(F)c2)N2CCN(c3c(C#N)c(=O)n(C)c4ccc(C#N)nc34)C[C@H]2C)nc1 (single isomer, unassigned) [Example 923] = 800 nM

// EC50 (Human venous whole blood) for C[C@@H]1CN(c2c(C#N)c(=O)n(C)c3ccc(C#N)nc23)CCN1Cc1ccc(F)c(F)c1 [Example 987] = 7300 nM

// EC50 (Human venous whole blood) for C[C@@H]1CN(c2cc(=O)n(C)c3ccc(C#N)nc23)[C@@H](C)CN1C(c1ccc(F)cc1)c1nc(C2CC2)no1 (single isomer, unassigned) [Example 735] = 140 nM

// EC50 (Human venous whole blood) for C[C@@H]1CN(c2c(C#N)c(=O)n(C)c3ccc(C#N)nc23)CCN1C(c1ccc(F)cc1)c1cccc2c1OC(F)(F)O2 (single isomer, unassigned) [Example 939] = 2600 nM

###

# Target Of Assay: human DGKα (Homo sapiens, UniProt P23743)
# Construct: TVMV protease cleavage site (C); Hexa-His (C); made in house; host or cells: Sf9 insect cells (baculovirus, Bac-to-Bac)
# Sequence (P23743 with tags, fused parts or gaps): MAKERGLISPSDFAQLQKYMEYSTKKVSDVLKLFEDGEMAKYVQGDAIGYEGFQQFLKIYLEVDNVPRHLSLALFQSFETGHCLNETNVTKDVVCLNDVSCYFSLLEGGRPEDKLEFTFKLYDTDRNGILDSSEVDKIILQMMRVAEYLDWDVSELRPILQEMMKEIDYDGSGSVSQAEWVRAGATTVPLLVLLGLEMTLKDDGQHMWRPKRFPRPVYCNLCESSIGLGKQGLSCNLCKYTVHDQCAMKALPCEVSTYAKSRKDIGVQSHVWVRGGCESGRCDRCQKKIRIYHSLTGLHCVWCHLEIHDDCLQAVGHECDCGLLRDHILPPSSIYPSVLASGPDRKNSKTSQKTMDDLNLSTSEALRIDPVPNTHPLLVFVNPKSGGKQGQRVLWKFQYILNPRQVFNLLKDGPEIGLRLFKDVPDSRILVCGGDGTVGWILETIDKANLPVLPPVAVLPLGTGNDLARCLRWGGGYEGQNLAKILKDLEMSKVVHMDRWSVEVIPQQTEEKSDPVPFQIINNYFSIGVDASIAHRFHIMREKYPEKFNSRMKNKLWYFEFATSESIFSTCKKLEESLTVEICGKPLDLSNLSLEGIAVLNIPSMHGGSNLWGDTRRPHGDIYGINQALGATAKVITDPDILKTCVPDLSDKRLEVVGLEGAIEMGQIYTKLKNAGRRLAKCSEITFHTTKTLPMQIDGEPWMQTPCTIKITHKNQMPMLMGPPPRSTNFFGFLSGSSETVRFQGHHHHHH
# Assay Remarks: DGKα LIPGLO assay (extruded liposome substrate), in vitro DGK inhibition
# Assay type: biochemical
# Settings: DGKα liposome (LIPGLO) assay; read-out: DGKa LIPGLO IC50
Quantity Name: pIC50
In plain terms, pIC50 is the concentration in mol/L turned into minus its base-10 logarithm.

Solved entries:
Compound	Measured
C[C@@H]1CN(c2c(C#N)c(=O)n(C)c3ccc(C#N)nc23)CCN1C(c1ccccc1)c1cc(F)cc(F)c1 (stereo partly drawn) [Example 874]	4.85
C[C@@H]1CN(c2c(C#N)c(=O)n(C)c3ccc(C#N)nc23)[C@@H](C)CN1C(c1ccc(F)cc1)c1ncccc1F (single isomer, unassigned) [Example 820]	6.04
C[C@@H]1CN(c2c(C#N)c(=O)n(C)c3ccc(C#N)nc23)CCN1C(c1ccc(F)cc1)c1ccc(F)cc1F (single isomer, unassigned) [Example 947]	5.70
C[C@@H]1CN(c2c(C#N)c(=O)n(C)c3ccc(C#N)nc23)CCN1C(c1ccc(F)cc1)c1ccc(C#N)cn1 (single isomer, unassigned) [Example 908]	6.11
Cc1ccc(C(C)N2CCN(c3c(C#N)c(=O)n(C)c4ccc(C#N)nc34)C[C@H]2C)cc1 (single isomer, unassigned) [Example 953]	5.96

Turning to the following compound.
// pIC50 (human DGKα (Homo sapiens, UniProt P23743)) for C[C@@H]1CN(c2c(C#N)c(=O)n(C)c3ccc(C#N)nc23)CCN1C(c1cccc(F)c1)c1ccc(C(F)(F)F)cn1 (single isomer, unassigned) [Example 949] = 5.18
